- measurementTarget: Metabotropic glutamate receptor 5 (Rattus norvegicus, UniProt P31424)
- Sequence (P31424 whole entry): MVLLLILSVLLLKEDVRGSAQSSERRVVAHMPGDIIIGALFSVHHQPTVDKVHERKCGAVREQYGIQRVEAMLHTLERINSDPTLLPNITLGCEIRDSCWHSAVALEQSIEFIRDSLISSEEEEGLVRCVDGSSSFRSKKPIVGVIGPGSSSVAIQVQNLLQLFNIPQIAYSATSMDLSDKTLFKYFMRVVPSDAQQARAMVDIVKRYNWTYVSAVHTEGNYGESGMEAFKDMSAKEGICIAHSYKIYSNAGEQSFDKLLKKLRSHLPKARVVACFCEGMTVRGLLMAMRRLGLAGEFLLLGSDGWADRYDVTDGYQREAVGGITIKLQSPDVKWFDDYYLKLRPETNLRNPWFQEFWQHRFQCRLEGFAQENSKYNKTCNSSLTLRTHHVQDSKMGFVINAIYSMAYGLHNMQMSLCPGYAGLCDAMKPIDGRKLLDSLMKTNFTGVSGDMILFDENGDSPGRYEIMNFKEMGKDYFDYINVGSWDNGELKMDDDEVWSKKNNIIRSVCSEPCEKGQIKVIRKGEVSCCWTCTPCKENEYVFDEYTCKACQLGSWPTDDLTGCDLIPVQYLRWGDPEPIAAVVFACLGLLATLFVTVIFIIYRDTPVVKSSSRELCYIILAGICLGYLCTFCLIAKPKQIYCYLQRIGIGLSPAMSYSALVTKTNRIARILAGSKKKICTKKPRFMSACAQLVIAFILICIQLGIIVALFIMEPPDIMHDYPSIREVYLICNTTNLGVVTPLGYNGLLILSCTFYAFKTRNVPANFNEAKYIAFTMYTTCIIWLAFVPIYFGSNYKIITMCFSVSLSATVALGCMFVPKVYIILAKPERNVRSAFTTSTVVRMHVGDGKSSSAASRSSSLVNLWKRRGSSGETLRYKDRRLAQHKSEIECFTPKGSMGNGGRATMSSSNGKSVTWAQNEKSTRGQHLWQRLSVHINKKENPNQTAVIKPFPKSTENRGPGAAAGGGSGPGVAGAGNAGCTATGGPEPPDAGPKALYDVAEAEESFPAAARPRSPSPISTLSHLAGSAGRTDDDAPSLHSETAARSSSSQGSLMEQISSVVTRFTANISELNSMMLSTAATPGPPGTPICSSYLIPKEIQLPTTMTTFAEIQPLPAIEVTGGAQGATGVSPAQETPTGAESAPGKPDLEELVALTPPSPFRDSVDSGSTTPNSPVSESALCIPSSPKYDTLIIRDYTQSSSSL
- protocol: Antagonist activity at rat mGluR5 expressed in HEK293A cells assessed as inhibition of glutamate-induced calcium fluorescence
- Format: functional, cell-based, HEK293-A
quantity: EC50 (nM)
Number only, in nM; omit the unit.

According to the records, this compound O=C(Nc1cccc(F)c1)c1cccc(Cl)c1 displays EC50 of 297

----------
Catalogue of Activity readings, one per entry.
- measurementTarget: Metabotropic glutamate receptor 5 (Rattus norvegicus) (UniProt P31424)
- Sequence (P31424 21-1203 limits assumed): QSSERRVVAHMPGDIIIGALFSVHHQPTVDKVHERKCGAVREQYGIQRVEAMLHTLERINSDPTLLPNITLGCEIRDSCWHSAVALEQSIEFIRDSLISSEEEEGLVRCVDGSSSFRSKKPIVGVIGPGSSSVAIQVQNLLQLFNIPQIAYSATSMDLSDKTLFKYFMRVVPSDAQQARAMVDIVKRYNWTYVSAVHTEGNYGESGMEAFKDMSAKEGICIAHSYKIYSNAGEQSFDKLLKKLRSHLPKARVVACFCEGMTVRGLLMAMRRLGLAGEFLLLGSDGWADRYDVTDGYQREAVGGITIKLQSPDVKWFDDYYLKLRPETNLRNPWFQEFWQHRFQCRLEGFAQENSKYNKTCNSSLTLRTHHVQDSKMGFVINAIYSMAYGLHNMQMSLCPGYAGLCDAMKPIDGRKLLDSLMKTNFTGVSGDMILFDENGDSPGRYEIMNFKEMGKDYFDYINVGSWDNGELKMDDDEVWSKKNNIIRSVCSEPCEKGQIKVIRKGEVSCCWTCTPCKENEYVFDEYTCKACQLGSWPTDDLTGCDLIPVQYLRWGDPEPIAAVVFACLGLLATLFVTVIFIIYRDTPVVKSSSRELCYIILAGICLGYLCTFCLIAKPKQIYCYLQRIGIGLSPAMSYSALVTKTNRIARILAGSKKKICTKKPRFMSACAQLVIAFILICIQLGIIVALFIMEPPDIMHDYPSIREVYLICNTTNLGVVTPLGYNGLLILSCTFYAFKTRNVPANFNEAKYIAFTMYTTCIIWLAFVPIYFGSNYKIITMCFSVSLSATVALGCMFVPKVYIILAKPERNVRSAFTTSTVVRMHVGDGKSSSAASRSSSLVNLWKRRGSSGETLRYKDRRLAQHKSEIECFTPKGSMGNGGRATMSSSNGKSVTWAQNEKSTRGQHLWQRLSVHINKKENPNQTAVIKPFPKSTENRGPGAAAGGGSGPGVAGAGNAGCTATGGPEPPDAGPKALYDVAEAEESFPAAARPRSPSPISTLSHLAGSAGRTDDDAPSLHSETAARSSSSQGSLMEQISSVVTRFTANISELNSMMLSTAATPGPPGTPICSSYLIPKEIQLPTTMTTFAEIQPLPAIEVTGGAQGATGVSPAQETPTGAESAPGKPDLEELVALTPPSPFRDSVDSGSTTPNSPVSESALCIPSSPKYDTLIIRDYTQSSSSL
- protocol: Induction of rat mGluR5 activation expressed in HEK293A cells assessed as maximal response in presence of glutamate
- Assay type: cell-based
- cond: HEK293-A

- smilesData: "O=C(Nc1ccc(Cl)cc1CN1C(=O)c2ccccc2C1=O)c1ccccc1O"
  Activity: "< 70%"
- smilesData: "Cc1ccc(C#Cc2cncnc2)cc1"
  Activity: "99%"
- smilesData: "Fc1cccc(/C=N/N=C/c2cccc(F)c2)c1"
  Activity: "< 70%"

According to the records, this compound N#Cc1cccc(C(=O)Nc2cc(-c3ccccc3)nn2-c2ccccc2)c1 displays Activity of < 70%

----------
- measurementTarget: Metabotropic glutamate receptor 5 (Rattus norvegicus, UniProt P31424)
- protocol: Activity at rat mGluR5 expressed in HEK293A cells
- Type: cell-based, HEK293-A
quantity: EC50 (µM)
Answer with a number only, understood to be in µM.

Answered examples (3):
- smilesData: "O=Cc1ccc(C#Cc2cncnc2)cc1"
  quantity: "EC50"
  assayValue: 7.9
- smilesData: "Clc1ccc(C#Cc2cncnc2)cc1"
  quantity: "EC50"
  assayValue: 3.9
- smilesData: "Cc1ccc(C#Cc2cncnc2)cc1"
  quantity: "EC50"
  assayValue: 3.3

Alright, here's another compound for you.
// CCc1ccc(C#Cc2cncnc2)cc1 : EC50 value = 18.8

----------
Entries and their Activity
- measurementTarget: Metabotropic glutamate receptor 5 (Rattus norvegicus) (UniProt P31424)
- protocol: Antagonist activity at rat mGluR5 expressed in HEK293A cells assessed as inhibition of glutamate-induced calcium fluorescence
- Type: functional, cell-based
- Parameters: concentration or dose not given beside the values
- cond: HEK293-A

Consider the worked cases shown below.
- smilesData: "Cc1ccc(C#Cc2cncc(Br)c2)nc1"
  assayValue: "50%"
- smilesData: "O=C(Nc1cccc(F)c1)c1cccc(Cl)c1"
  assayValue: "58%"
- smilesData: "Cc1cc(C#Cc2cncnc2)ccc1F"
  assayValue: "100%"
- smilesData: "FC(F)(F)c1cccc(C#Cc2cncnc2)c1"
  assayValue: "100%"
- smilesData: "C(#Cc1cncnc1)c1ccccc1"
  assayValue: "71%"
- smilesData: "Fc1cc(F)cc(C#Cc2cncnc2)c1"
  assayValue: "100%"
- smilesData: "COc1cccc(C#Cc2ccc(C)cn2)c1"
  assayValue: "50%"
- smilesData: "C(#Cc1cncnc1)c1ccc(-c2ccccc2)cc1"
  assayValue: "100%"

get_value(item= Clc1cccc(C#Cc2cncnc2)c1 , readout=Activity) returns 100%

Activity measured on Cc1cccc(C#Cc2cncnc2)c1 = 100%

Activity in this record for Cc1ccc(C)c(C#Cc2cncnc2)c1 : 58%

----------
- measurementTarget: Metabotropic glutamate receptor 5 (Rattus norvegicus, UniProt P31424)
- protocol: Antagonist activity at rat mGluR5 expressed in HEK293A cells assessed as inhibition of glutamate-induced calcium fluorescence
- Type: functional, cell-based, HEK293-A
Quick reference: IC50 of the listed items.

- smilesData: "Fc1cc(F)cc(C#Cc2cncnc2)c1"
  assayValue: "6400 nM"
- smilesData: "FC(F)(F)c1cccc(C#Cc2cncnc2)c1"
  assayValue: "450 nM"
- smilesData: "C(#Cc1cncnc1)c1ccccc1"
  assayValue: "480 nM"
- smilesData: "C(#Cc1cncnc1)c1ccc(-c2ccccc2)cc1"
  assayValue: "7800 nM"
- smilesData: "Clc1cccc(C#Cc2cncnc2)c1"
  assayValue: "34 nM"

IC50 in this record for Cc1cccc(C#Cc2cncnc2)c1 : 7 nM

Note to self: IC50 recorded for Cc1ccc(C)c(C#Cc2cncnc2)c1 was 11200 nM

For record Cc1cc(C#Cc2cncnc2)ccc1F the listed IC50 is 350 nM

Taken from ChEMBL document CHEMBL1157524.
